measurement target: human HER3 receptor (human, UniProt P21860 20-1342)
Sequence (P21860 20-1342 limits assumed): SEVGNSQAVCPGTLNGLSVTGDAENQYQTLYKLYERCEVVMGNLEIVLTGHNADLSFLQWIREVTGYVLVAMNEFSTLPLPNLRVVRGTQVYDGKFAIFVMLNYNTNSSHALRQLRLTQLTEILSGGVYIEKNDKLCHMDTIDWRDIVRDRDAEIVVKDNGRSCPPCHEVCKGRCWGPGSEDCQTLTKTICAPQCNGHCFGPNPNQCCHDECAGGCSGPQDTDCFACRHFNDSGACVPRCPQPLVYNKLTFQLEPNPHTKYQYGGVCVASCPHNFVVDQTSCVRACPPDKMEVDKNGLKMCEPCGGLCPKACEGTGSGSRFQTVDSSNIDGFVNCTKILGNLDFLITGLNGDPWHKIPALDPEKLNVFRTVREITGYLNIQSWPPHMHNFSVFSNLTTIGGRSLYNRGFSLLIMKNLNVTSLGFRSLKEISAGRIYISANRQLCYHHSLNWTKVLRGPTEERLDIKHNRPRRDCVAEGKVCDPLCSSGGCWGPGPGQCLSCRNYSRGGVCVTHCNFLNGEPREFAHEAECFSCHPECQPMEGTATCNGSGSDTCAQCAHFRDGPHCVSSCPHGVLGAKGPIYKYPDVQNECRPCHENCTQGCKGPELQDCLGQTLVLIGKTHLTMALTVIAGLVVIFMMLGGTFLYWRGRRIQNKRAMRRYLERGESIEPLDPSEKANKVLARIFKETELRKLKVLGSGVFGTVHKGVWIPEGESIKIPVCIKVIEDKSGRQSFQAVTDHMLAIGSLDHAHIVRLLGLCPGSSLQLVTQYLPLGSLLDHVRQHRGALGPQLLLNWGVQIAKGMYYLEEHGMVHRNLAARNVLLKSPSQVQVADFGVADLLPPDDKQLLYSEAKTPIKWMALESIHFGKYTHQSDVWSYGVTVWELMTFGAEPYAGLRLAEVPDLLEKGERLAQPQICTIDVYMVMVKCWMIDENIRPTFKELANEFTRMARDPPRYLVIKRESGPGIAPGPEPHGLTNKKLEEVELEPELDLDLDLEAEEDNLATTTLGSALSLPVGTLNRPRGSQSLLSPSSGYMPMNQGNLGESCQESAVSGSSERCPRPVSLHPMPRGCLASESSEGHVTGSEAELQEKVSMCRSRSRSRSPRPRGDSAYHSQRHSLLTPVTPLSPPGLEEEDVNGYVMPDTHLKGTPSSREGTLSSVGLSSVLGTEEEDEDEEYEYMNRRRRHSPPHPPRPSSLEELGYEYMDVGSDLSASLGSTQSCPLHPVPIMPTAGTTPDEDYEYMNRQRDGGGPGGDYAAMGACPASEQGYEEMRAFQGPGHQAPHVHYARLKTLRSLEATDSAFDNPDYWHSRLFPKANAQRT
test description: cell-based or functional assay
value kind: Phospho-HER3 ELISA IC50, heregulin induced HER3 phosphorylation, N87 cells

Documented Phospho-HER3 ELISA IC50, heregulin induced HER3 phosphorylation, N87 cells of humanized 1D9 POTELLIGENT antibody (antibody, human IgG1, kappa, V domains shown, also called humanized 1D9 H6L2 POTELLIGENT antibody; humanized POTELLIGENT antibody) VH: QVQLVQSGAEVKKPGASVKVSCKASGYTFTSYWMHWVRQAPGQGLEWMGVIDPSDGYSHYNQKFKGKVTLTVDTSISTAYMELSRLRSDDTAVYYCAGGLAGTLDYWGQGTTVTVSS VL: DIQMTQSPSSLSASVGDRVTITCRSSQSIVHSSGNTYLQWFQQKPGKAPKLLIYKVSNRFSGVPSRFSGSGSGTDFTLTISSLQPEDFAVYYCFQGSHVPWTFGQGTKLEIKR : 0.0175 µg/mL

The measurements presented in this section are drawn from patent WO2016059602A2.
